All figures here come from PubChem BioAssay AID179.

system: CEM cells HIV-1 protection, formazan growth assay; assay: NCI AIDS Antiviral Assay;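 active means compounds giving half or more protection of infected cells from virus-caused growth loss, again on retest; inactive means the rest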
Bench note: report the call from active, inactive

Solved entries:
Status in this test for `Cc1cccc(NC(=S)N=Nc2c(O)[nH]c3ccccc23)c1` ?
inactive

Status in this test for CN(C)C12CCCCCCC1S(=O)(=O)C2 (stereo not drawn) ?
inactive

Status in this test for COc1ccc(N2C(=O)CC(C3CC(C(C)(C)C)CCC3=O)C2=O)cc1 (stereo not drawn) ?
inactive

Status in this test for `CNNCc1ccc(C(=O)NC(C)C)cc1` ?
inactive

Others:
Status in this test for `C/C(=N\NS(=O)(=O)c1ccc(C)cc1)c1cc2ccccc2n1C` ?
inactive

Status in this test for `C/C=C/C[P+](c1ccccc1)(c1ccccc1)c1ccccc1` ?
inactive

Status in this test for CC1=CP(=O)(c2ccccc2)CC1 (stereo not drawn) ?
inactive

Status in this test for `CCCCCCCCCC=C(c1cc(Cl)c(O)c(C(=O)O)c1)c1cc(Cl)c(O)c(C(=O)O)c1` ?
active

Status in this test for COC(=O)c1cc(S(=O)(=O)NC2=NCC(C)NN2)c(S)cc1Cl (stereo not drawn) ?
inactive

###

test system: CEM cells HIV-1 protection, formazan growth assay; experiment: NCI AIDS Antiviral Assay;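 active means compounds giving half or more protection of infected cells from virus-caused growth loss, again on retest; inactive means the rest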
Bench note: report the call from active, inactive

Solved entries:
Status in this test for `COc1ccc(NC(=O)/C(N=O)=C(/C)O)cc1` ?
inactive

Status in this test for `Cc1cn(Cc2ccccc2CCO)c(=O)[nH]c1=O` ?
inactive

Status in this test for `CN(C)NP(=O)(NN(C)C)NN(C)C` ?
inactive

Status in this test for `CCOC(=O)c1ccc(NC(=O)Nc2cc(C)ccn2)cc1` ?
inactive

Status in this test for `O=c1ccc(=O)n(-c2ccccc2)[nH]1` ?
inactive

Status in this test for `N#CC1(c2ccccc2)CCN(Cc2ccccc2)CC1` ?
inactive

Status in this test for `N=C(N)SCN1C(=O)c2ccccc2C1=O` ?
inactive

Status in this test for `CNn1c(-c2ccc(C)cc2)n[nH]c1=O` ?
active

Others:
Status in this test for `OCCCCCCOc1ccc(-c2cc(-c3ccccn3)nc(-c3ccccn3)c2)cc1` ?
inactive

Status in this test for `COc1ccc(Cl)cc1NC(=O)Nc1cc(C)ccn1` ?
inactive

###

System: CEM cells HIV-1 protection, formazan growth assay
Experiment: NCI AIDS Antiviral Assay
Settings: measured here: growth of uninfected CEM cells
Description: The ability of compounds to protect human CEM cells from HIV-1 infection is measured as a screen for new compounds capable of inhibiting the HIV virus. Five concentrations of drug were tested on uninfected and infected cells and cell growth was measured using a soluble formazan assay. […] Compounds that provided at least 50% protection were retested. Compounds that provided at least 50% protection on retest were listed as moderately active. […]
pIC50: −log10 of the molar value.
Entries annotated with measured pIC50

Worked examples, 3 molecules total:
Notebook: `O=C(Nc1cccc(NC(=O)c2nn[nH]n2)n1)c1nn[nH]n1` , pIC50 read as < 3.70

Notebook: `NC1(C(=O)O)CCCC1` , pIC50 read as < 3.14

Notebook: `COc1ccc(-c2nnc3n(C)c4ccccc4n3c2=O)cc1` , pIC50 read as < 4.00

Then there is this molecule:
Notebook: `Cc1nccc2c(C(=O)O)c(C(=O)O)[nH]c12` , pIC50 read as < 3.77

###

Entries annotated with measured IC50
system: CEM cells HIV-1 protection, formazan growth assay; assay: NCI AIDS Antiviral Assay; conditions: measured here: growth of uninfected CEM cells

Notebook: OC(CN1CCC(c2ccccc2)CC1)c1ccc(Br)cc1 (centres undefined) , IC50 read as > 18.2 µM

Notebook: `O=C(NNC1=NCCN1)c1ccco1` , IC50 read as > 200 µM

Notebook: O=C(CC(c1ccccc1)C(C(=O)c1ccncc1)C(CC(=O)c1ccncc1)c1ccccc1)c1ccncc1 (centres undefined) , IC50 read as > 200 µM

Then there is this molecule:
Notebook: `Oc1cccc2c1N1CCN2CC1` , IC50 read as > 200 µM

###

tested on: CEM cells HIV-1 protection, formazan growth assay; test: NCI AIDS Antiviral Assay; conditions: measured here: growth of uninfected CEM cells
RECORDED_ENDPOINT: IC50

Worked examples, 4 compounds total:
Notebook: `O=C(CCCn1ccnc1[N+](=O)[O-])NCCn1cnc([N+](=O)[O-])c1` , IC50 read as > 200 µM

Notebook: `COc1ccc(NC(=O)CC(=O)N/N=C/c2ccc(N(CCC#N)S(=O)(=O)c3ccccc3)cc2)cc1` , IC50 read as > 251 µM

Notebook: `COC(=O)c1ccc(CS(=O)(=O)c2ccccc2)cc1` , IC50 read as > 12.9 µM

Notebook: `Cc1cccc(NC(=S)Nc2cccc(Cl)c2)n1` , IC50 read as > 200 µM

Then there is this compound:
Notebook: `Nc1nc(N)nc(CC(=O)O)n1` , IC50 read as > 200 µM

###

Entries annotated with measured IC50
test system: CEM cells HIV-1 protection, formazan growth assay; assay: NCI AIDS Antiviral Assay; settings: measured here: growth of uninfected CEM cells

Worked examples, 2 compounds total:
Entry `Cc1ccc2c(=O)c3ccccc3sc2c1` , CEM cells HIV-1 protection, formazan growth assay data, IC50 value: > 200 µM

Entry CC1CC[C@]2(C(=O)O)CCC3(C)C(=C2[C@H]1C)C=CC1[C@@]2(C)CC[C@H](O)C(C)(C)C2CC[C@]13C (stereo partly drawn) , CEM cells HIV-1 protection, formazan growth assay data, IC50 value: > 100 µM

Then there is this compound:
Entry `C=C(C)C(CCC(=O)O)(CCC(=O)O)C(C)=O` , CEM cells HIV-1 protection, formazan growth assay data, IC50 value: > 1020 µM

###

test system: CEM cells HIV-1 protection, formazan growth assay; assay: NCI AIDS Antiviral Assay
RECORDED_ENDPOINT: EC50

Worked examples, 10 molecules total:
Notebook: NC1=NC(=O)C(CC(=O)c2ccc(Cl)cc2)S1 (centres undefined) , EC50 read as > 200 µM

Notebook: `CCOC(=O)N/N=C(\CC)NO` , EC50 read as > 200 µM

Notebook: O=C(CCCC1Cc2ccccc2C1=O)c1ccccc1 (centres undefined) , EC50 read as > 200 µM

Notebook: CCCOC(C)OCCC#CCC(C)OC(=O)CC(Cl)(Cl)Cl (centres undefined) , EC50 read as > 200 µM

Notebook: `O=c1oc2c(-c3ccccc3)cccc2c(O)c1-c1ccccc1` , EC50 read as > 200 µM

Notebook: `Cc1ccc(NC(=O)C(=O)C2C(=O)NC(=O)NC2=O)cc1C` , EC50 read as > 117 µM

Notebook: `S=c1ncnc2cc3[nH][nH]cc3cc12` , EC50 read as > 67.6 µM

Notebook: COc1ccc2c(c1)OCCN(C)OC2c1ccccc1 (centres undefined) , EC50 read as > 200 µM

Notebook: C=CCc1cc(OC)c2c(c1)C(O)CC(c1ccc(OC)c(OC)c1)O2 (centres undefined) , EC50 read as > 263 µM

Notebook: `O=C(c1cccs1)N(C(=S)N1CCN(c2ccccc2)CC1)C1CCCCC1` , EC50 read as > 12.6 µM

Others:
Notebook: Cc1ccc(S(=O)(=O)OCC23CCC(C2)C2CC23)cc1 (centres undefined) , EC50 read as > 100 µM

Notebook: CC(NC(=O)OC(C)(C)C)C(=O)C(N)=O (centres undefined) , EC50 read as > 200 µM

###

system: CEM cells HIV-1 protection, formazan growth assay; assay: NCI AIDS Antiviral Assay; conditions: measured here: growth of uninfected CEM cells
pIC50: −log10 of the molar value. Where a SMILES comes first, the peptide text is derived from it.
RECORDED_ENDPOINT: pIC50

Notebook: CC1=CC(O)(c2ccccc2)C(N2CCOCC2)N1O (stereo unspecified) , pIC50 read as < 3.70

Notebook: `O=C(CCCN1CCC2(CC1)C(=O)NC(=O)N2c1ccccc1)c1ccc(F)cc1` , pIC50 read as < 3.70

Notebook: CCC(C)C(NC(=O)CNC(=O)C(Cc1c[nH]c2ccccc12)NC(=O)C(NC(=O)C(NC(=O)C(N)CC(C)C)C(C)O)C(C)C)C(=O)NC(CCCCN)C(=O)NC(CCC(N)=O)C(=O)NC(CC(C)C)C(=O)NC(CCC(N)=O)C(=O)NC(C)C(=O)NC(CCCN=C(N)N)C(N)=O (stereo unspecified) (H-LTVWGIKQLQAR-NH2; configuration not given here) , pIC50 read as < 4.30

Notebook: `CC(C)(c1ccc(Oc2ccc(C#N)c(C#N)c2)cc1)c1ccc(Oc2ccc(C#N)c(C#N)c2)cc1` , pIC50 read as < 4.97

Notebook: `O=C(NNC(=O)c1cc(/C=C/c2cccc([N+](=O)[O-])c2)[nH]c(=S)n1)Nc1ccc(Cl)cc1` , pIC50 read as < 4.96

Others:
Notebook: CC(C)(NC(=O)OCc1ccccc1)C(=O)NC(Cc1ccccc1)C(=O)O (stereo unspecified) (HELM PEPTIDE1{[O=C(OCc1ccccc1)[*:2]].[Aib].[O=C(O)C(Cc1ccccc1)N[*:1]]}$$$$V2.0) , pIC50 read as < 3.70
